For each entry below, report its normalized growth value.
# assay comment: chemical genetic growth profiling, strain panel (AID 1159580);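 note: tested at 20 µM; growth read once vehicle control cultures reached saturation at 30 °C; 1 = growth at the plate median or of vehicle wells; lower values mean less growth of the strain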
# assay context: S. cerevisiae deletion strains, growth OD, locus YJL157C, strain FAR1, active compounds read low
Screen size: about 5,500 compounds; about 2,000 (36%) were called active. Another 18% or so got no clear call; they are omitted. The list shows a part of the results.
Lab note: jot down the number only; don't add units.

Input CC(NC(=S)N/N=C\c1ccccc1O)c1ccccc1 (centres undefined) , output reported normalized growth.
0.966

Input O=C1/C(=C/c2ccccn2)CCc2ccccc21 , output reported normalized growth.
0.939

Input c1ccc(-c2nnc(-c3ccccn3)nc2-c2ccccc2)cc1 , output reported normalized growth.
0.74

Input Oc1c(Cl)cc(Cl)cc1C=Nc1ccc(Sc2ccccc2)nc1Sc1ccccc1 , output reported normalized growth.
0.56

Input COc1ccc(/C=C2/C(=O)Nc3ccccc32)cc1 , output reported normalized growth.
0.83

Input O=C1Nc2ccccc2/C1=C/c1ccc(C(F)(F)F)cc1Cl , output reported normalized growth.
0.958

Input O=C1C(Cl)=C(Oc2cc(Cl)c(Cl)cc2Cl)C(=O)c2ccccc21 , output reported normalized growth.
0.303

Input COc1ccccc1NC(=S)N/N=C\c1ccccc1O , output reported normalized growth.
0.951

Input CCNC(=S)N/N=C\c1cc(Cl)cc(Cl)c1O , output reported normalized growth.
0.774

Input OC(COc1ccc(F)cc1)(c1ccccc1)c1ccccc1 , output reported normalized growth.
0.968

Input Cc1cc(Cl)ccc1NNC(=O)c1sccc1Br , output reported normalized growth.
0.85

Input COCCCNC(=S)N/N=C\c1cc(Br)ccc1O , output reported normalized growth.
0.965

Input FC(F)(F)c1cccc(NC(=S)NN=C2CCCCCC2)c1 , output reported normalized growth.
0.869

Input CCOC(=O)N/N=C\c1cc(Cl)cc(Cl)c1O , output reported normalized growth.
0.785

Input CCCCNC(=S)N/N=C\c1cc(Cl)cc(Cl)c1O , output reported normalized growth.
0.63

Input Oc1c(Br)cc(Br)cc1/C=N\n1cnnc1 , output reported normalized growth.
0.412

Input O/N=C(/c1ccc(Cl)cc1)c1cc2ccccc2o1 , output reported normalized growth.
0.872

Input O=S(=O)(CS(=O)(=O)Oc1ccc(Cl)c(Cl)c1)Oc1ccc(Cl)c(Cl)c1 , output reported normalized growth.
0.959

Input Oc1c(Cl)cc(Cl)cc1/C=N\NC(=S)Nc1cc(C(F)(F)F)cc(C(F)(F)F)c1 , output reported normalized growth.
0.128

Input CC(C)(C)C(=O)NC(=S)N/N=C\c1cc(Cl)cc(Cl)c1O , output reported normalized growth.
0.215

Input CC(C)(C)NC(=S)N/N=C\c1ccccc1O , output reported normalized growth.
0.891

Input Cc1nnc2n1N=C(c1ccc(CC(C)C)cc1)C(C)S2 (centres undefined) , output reported normalized growth.
0.983

Input Cc1ccc(NNC(=O)c2cccs2)cc1Cl , output reported normalized growth.
0.952

Input Oc1c(Br)cc(Br)cc1C=Nc1ccc(Sc2ccccc2)nc1Sc1ccccc1 , output reported normalized growth.
0.208

* * *

# assay comment: chemical genetic growth profiling, strain panel (AID 1159580);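 note: tested at 20 µM; growth read once vehicle control cultures reached saturation at 30 °C; 1 = growth at the plate median or of vehicle wells; lower values mean less growth of the strain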
# assay context: S. cerevisiae deletion strains, growth OD, locus YNL222W, strain SSU72, active compounds read low
Among all 5,500 compounds or so, about 2,000 (36%) were called active. Inconclusive results (about 18%) are left out. The list shows a part of the results.
For each entry below, report its normalized growth value.
Lab note: jot down the number only; don't add units.

Input FC(F)(F)c1ccc(N2CCc3ccccc3C2)c(NC(=S)Nc2cc(Cl)cc(Cl)c2)c1 , output reported normalized growth.
0.979

Input O=C1Nc2ccccc2/C1=C/c1ccc(C(F)(F)F)cc1Cl , output reported normalized growth.
0.968

Input O=C(NNc1ccc(F)cc1F)c1sccc1Cl , output reported normalized growth.
0.975

Input CC(NC(=S)N/N=C\c1ccccc1O)c1ccccc1 (stereo unspecified) , output reported normalized growth.
0.974

Input O=S(=O)(CS(=O)(=O)Oc1ccc(Cl)c(Cl)c1)Oc1ccc(Cl)c(Cl)c1 , output reported normalized growth.
0.955

Input CCNC(=S)N/N=C\c1cc(Cl)cc(Cl)c1O , output reported normalized growth.
0.93

Input Oc1c(Br)cc(Br)cc1C=Nc1ccc(Sc2ccccc2)nc1Sc1ccccc1 , output reported normalized growth.
0.915

Input FC(F)(F)c1cccc(NC(=S)NN=C2CCCCCC2)c1 , output reported normalized growth.
1

Input Cc1nnc2n1N=C(c1ccc(CC(C)C)cc1)C(C)S2 (stereo unspecified) , output reported normalized growth.
0.97

Input O=[N+]([O-])c1cc(Cl)cc([N+](=O)[O-])c1Nc1ccccc1 , output reported normalized growth.
0.936

Input Oc1c(Br)cc(Br)cc1C=Nc1ccccn1 , output reported normalized growth.
0.96

Input O=C(Nc1ccccc1)Nc1ccc(Cl)cc1[N+](=O)[O-] , output reported normalized growth.
0.985

Input COCCCNC(=S)N/N=C\c1cc(Cl)cc(Cl)c1O , output reported normalized growth.
0.962

Input CCOC(=O)N/N=C\c1cc(Cl)cc(Cl)c1O , output reported normalized growth.
0.934

Input CC(C)(C)C(=O)NC(=S)N/N=C\c1cc(Cl)cc(Cl)c1O , output reported normalized growth.
0.926

Input O=C1Nc2ccccc2/C1=C\c1ccc(Cl)cc1 , output reported normalized growth.
0.945

Input OC(COc1ccc(F)cc1)(c1ccccc1)c1ccccc1 , output reported normalized growth.
0.962

Input CC(C)(C)NC(=S)N/N=C\c1ccccc1O , output reported normalized growth.
0.944

Input Oc1c(Cl)cc(Cl)cc1/C=N\NC(=S)Nc1cc(C(F)(F)F)cc(C(F)(F)F)c1 , output reported normalized growth.
0.885

Input c1ccc(-c2nnc(-c3ccccn3)nc2-c2ccccc2)cc1 , output reported normalized growth.
0.914

Input O=C1Nc2ccccc2/C1=C/c1ccc(Oc2ccccc2)nc1 , output reported normalized growth.
0.956

* * *

For each entry below, report its normalized growth value.
# assay comment: chemical genetic growth profiling, strain panel (AID 1159580);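 note: tested at 20 µM; growth read once vehicle control cultures reached saturation at 30 °C; 1 = growth at the plate median or of vehicle wells; lower values mean less growth of the strain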
# assay context: S. cerevisiae deletion strains, growth OD, locus YPL209C, strain IPL1, active compounds read low
The whole screen tested about 5,500 compounds, of which about 2,000 (36%) were called active. Another 18% or so got no clear call; they are omitted. Some of the results follow.
Lab note: jot down the number only; don't add units.

Input Oc1c(Cl)cc(Cl)cc1C=Nc1ccc(Sc2ccccc2)nc1Sc1ccccc1 , output reported normalized growth.
0.951

Input O=C1C(Cl)=C(Oc2cc(Cl)c(Cl)cc2Cl)C(=O)c2ccccc21 , output reported normalized growth.
0.581

Input OC(COc1ccc(F)cc1)(c1ccccc1)c1ccccc1 , output reported normalized growth.
0.956

Input Cc1ccc(C)n1-c1ccc(/C=C2/C(=O)Nc3ccccc32)cc1 , output reported normalized growth.
0.977

Input O=C1Nc2ccccc2/C1=C\c1cccc([N+](=O)[O-])c1 , output reported normalized growth.
0.974

Input O=[N+]([O-])c1cc(Cl)cc([N+](=O)[O-])c1Nc1ccccc1 , output reported normalized growth.
0.933

Input OC1(C(F)(F)F)CC(c2ccc3ccccc3c2)=NN1 (stereo not given) , output reported normalized growth.
0.232

Input COc1ccc(/C=C2/C(=O)Nc3ccccc32)cc1 , output reported normalized growth.
0.894

Input Oc1c(Br)cc(Br)cc1C=Nc1ccc(Sc2ccccc2)nc1Sc1ccccc1 , output reported normalized growth.
0.949

Input c1ccc(-c2nnc(-c3ccccn3)nc2-c2ccccc2)cc1 , output reported normalized growth.
0.931

Input O=C1Nc2ccccc2/C1=C/c1ccc(C(F)(F)F)cc1Cl , output reported normalized growth.
0.974

Input CN(C)C=Nc1nnc(Sc2nc3c(Cl)cc(Cl)cc3s2)s1 , output reported normalized growth.
0.975

Input O=C1Nc2ccccc2/C1=C\c1c(Cl)cccc1Cl , output reported normalized growth.
0.969

Input O=C(NNc1ccc(F)cc1F)c1sccc1Cl , output reported normalized growth.
0.967

Input CC(NC(=S)N/N=C\c1ccccc1O)c1ccccc1 (stereo not given) , output reported normalized growth.
0.979

Input CC(C)(C)NC(=S)N/N=C\c1ccccc1O , output reported normalized growth.
0.941

Input Oc1c(Br)cc(Br)cc1C=Nc1ccccn1 , output reported normalized growth.
0.967

Input COc1ccccc1NC(=S)N/N=C\c1ccccc1O , output reported normalized growth.
0.967

Input Cc1cc(Oc2ccc(C(F)(F)F)cc2NS(C)(=O)=O)cc(C)c1Cl , output reported normalized growth.
0.987

Input O=C1Nc2ccccc2/C1=C/c1ccc(Oc2ccccc2)nc1 , output reported normalized growth.
0.971

Input CC(C)(C)C(=O)NC(=S)N/N=C\c1cc(Cl)cc(Cl)c1O , output reported normalized growth.
0.93

Input Cc1cc(Cl)ccc1NNC(=O)c1sccc1Cl , output reported normalized growth.
0.899

Input O=C(Nc1ccccc1)Nc1ccc(Cl)cc1[N+](=O)[O-] , output reported normalized growth.
0.975

Input Cc1ccc(NNC(=O)c2cccs2)cc1Cl , output reported normalized growth.
0.967

Input COCCCNC(=S)N/N=C\c1cc(Br)ccc1O , output reported normalized growth.
0.965
